Sourced from PubChem BioAssay (NCI)

tested on: HCC-2998 colon; assay: NCI-60 one-dose screen, 48 h (100 = growth as untreated, 0 = no growth, -100 = all killed); details: 10 µM unless noted
The panel holds about 83,000 compounds, 20% with a hit somewhere; the sample as a whole holds those more often.
In this section we review reported growth values for a set of compounds.
Give just the numeric value; % need not be written.

# Compound, Quantity Unit, growth
rows = [
    ("Cc1nc(N)[nH]c(=O)c1C", "%", 81.1),
]

(Q) Fill in the blank: the reported growth of `N#Cc1c(N2CCOCC2)nc2sc3cc(Cl)ccc3n2c1=N` is ____.
(A) 122

(Q) Subsequent entry: `Cc1nn(-c2ccc(Cl)cc2)c2nc3c(nc12)c(=O)oc1ccccc13`
(A) 98.2

(Q) Subsequent entry: `CC(C)[O-].CC(C)[O-].CN(CCN(C)Cc1cc(F)cc(F)c1[O-])Cc1cc(F)cc(F)c1[O-].[Ti+4]`
(A) 57

(Q) Subsequent entry: `ClC1=C(Cl)C(Cl)=C(Cl)C1=C/C=C/c1ccccc1`
(A) -93.3

(Q) Subsequent entry: `O=C(Oc1ccc[nH]c1=O)c1cccc(Cl)c1`
(A) 106

* * *

In this section we review reported growth values for a set of compounds.
test system: OVCAR-3 ovarian; assay: NCI-60 one-dose screen, 48 h (100 = growth as untreated, 0 = no growth, -100 = all killed); details: 10 µM unless noted
About 83,000 compounds went through this panel and 20% of them were active in at least one assay; those are over-represented in the sample as a whole.
Give just the numeric value; % need not be written.

Here is how some compounds turned out for growth.
# Compound, Quantity Unit, growth
records = [
    ("CCOC(=O)c1cc(-c2cccnc2)nc2c(Cl)cc(Cl)cc12", "%", 80),
    ("COc1ccc(C(=O)C(C)Br)cc1OC (centres undefined)", "%", 61.5),
    ("O=C1CC(C(F)(F)F)=NN1C(=O)c1nn(-c2ccc(Cl)cc2)cc1O", "%", 65.7),
    ("CN(C)c1ccc2c(c1)/C(=N/O)c1ccccc1-2", "%", 93.4),
    ("Nc1ccc(C2=NN(c3ccccc3)C(c3ccc(Cl)cc3)C2)cc1 (centres undefined)", "%", 51.7),
]

Query compound follows.
(Q) Fill in the blank: the reported growth of `Cc1c(C)c(N2C(=O)C=CC2=O)c(C)c(C)c1N1C(=O)C=CC1=O` is ____.
(A) 45.1

* * *

test system: SF-539 CNS; assay: NCI-60 one-dose screen, 48 h (100 = growth as untreated, 0 = no growth, -100 = all killed); conditions: 10 µM unless noted
This is part of a sample that, as a whole, favours compounds with a hit. Of some 83,000 tested, about 20% had one in any assay. The source made the active and inactive calls. The calls were made as follows: active = growth percent below 10; inactive = the rest.
Property Label: growth

# Compound, Property Label, Value Observed
rows = [
    ("CC(=O)c1ccc2c3c(n(C)c2c1)CCCC3", "growth", "98% (inactive)"),
    ("CC(=O)n1c2ccccc2c2ccccc21", "growth", "107% (inactive)"),
    ("CCC(CCC(C)C1CCC2C3CC=C4CC(O)CCC4(C)C3CCC12C)C(C)C (stereo not drawn) (tested in a mixture with another compound)", "growth", "80.3% (inactive)"),
]

(Q) Fill in the blank: the reported growth of CCC1(c2ccccc2)Oc2ccccc2-n2c(C#N)c3ccccc3c2C1=O (stereo not drawn) is ____.
(A) 105% (inactive)

(Q) Subsequent entry: CCC(C)CC(CC)NCCN1CCN(C(CC)CC(C)CC)C1=S (stereo not drawn)
(A) 69.2% (inactive)

(Q) Subsequent entry: `COc1ccc(-c2cc(Cc3cccs3)c(=O)n(Cn3cncn3)n2)cc1`
(A) 101% (inactive)

(Q) Subsequent entry: O=C(C(=O)N1CCCCC1)c1ccc(OC2OC(CO)C(O)C(O)C2O)cc1 (stereo not drawn)
(A) 100% (inactive)

(Q) Subsequent entry: `CCN(CC)CCCNCCCNc1cc(OC)cc2cccnc12`
(A) 84.6% (inactive)

* * *

tested on: DU-145 prostate; experiment: NCI-60 one-dose screen, 48 h (100 = growth as untreated, 0 = no growth, -100 = all killed); conditions: 10 µM unless noted
About 83,000 compounds went through this panel and 20% of them were active in at least one assay; those are over-represented in the sample as a whole. Active and inactive are the calls of the source. How the source made its calls: active means growth percent below 10; inactive means the rest.
In this section we review reported growth values for a set of compounds.

Here is how some compounds turned out for growth.
# Smiles Structure, growth
data = [
    ("Clc1ccc([C@@H]2C[C@@H]3Cc4cc(Br)c5ccccc5c4N2O3)c(Cl)c1", "93.3% (inactive)"),
    ("O=C1Cc2cc(CCN3CCN(CCOCCO)CC3)c(Cl)cc2N1Cc1ccc(-c2ccccc2-c2nn[nH]n2)cc1", "117% (inactive)"),
]

Query compound follows.
(Q) Fill in the blank: the reported growth of `CC(=O)NC1(C(=O)O)CCCC1` is ____.
(A) 126% (inactive)

* * *

test system: NCI-H23 lung; experiment: NCI-60 one-dose screen, 48 h (100 = growth as untreated, 0 = no growth, -100 = all killed); details: 10 µM unless noted
This is part of a sample that, as a whole, favours compounds with a hit. Of some 83,000 tested, about 20% had one in any assay.
Property Label: growth (%)
Give just the numeric value; % need not be written.

Here is how some compounds turned out for growth.
# Compound, Study System, growth, %
measured = [
    ("c1ccc(-c2nnc(Nc3nnc(-c4ccccc4)s3)s2)cc1", "NCI-H23 lung", 109),
    ("Cn1c(=O)c2nc(SCc3ccccc3)n(C)c2n(C)c1=O", "NCI-H23 lung", 108),
    ("COc1ccc(C2=NN(C(C)=O)C(c3cc(OC)c(OC)c(OC)c3)C2)cc1 (configuration not stated)", "NCI-H23 lung", 101),
]

Query compound follows.
(Q) Give NCI-H23 lung growth for `C/C(=C\CCc1ccsc1)CC/C=C(\C)CCCN1CCN(CCO)CC1`
(A) 62.2

* * *

test system: SK-MEL-2 melanoma; test: NCI-60 one-dose screen, 48 h; settings: 10 µM unless noted
The panel holds about 83,000 compounds, 20% with a hit somewhere; the sample as a whole holds those more often. Active and inactive are the calls of the source. The calls were made as follows: active = growth percent below 10; inactive = the rest.
Just give me one of these, please: class 1 = active, class 0 = inactive

A selection of reference data follows.
# Molecule, Assigned Label
measured = [
    ("O=C(Nc1nc(-c2ccc(Cl)cc2)cs1)c1cc(O)c(O)c(O)c1", "class 0"),
    ("C[N+]1(CCc2ccccc2)CCC(CCC2CC[N+](C)(CCc3ccccc3)CC2)CC1 (configuration not stated)", "class 0"),
    ("O=C1Cc2cc(CCn3cncn3)c(Cl)cc2N1", "class 0"),
]

(Q) State the result this test recorded for `CCN1C2=C(SC(=S)C1=C1SC(C(=O)OC)=C(C(=O)OC)S1)SC(=Nc1ccc(OC)cc1)C2=O` .
(A) class 1

(Q) Subsequent entry: N#Cc1c2ccccc2c2n1-c1ccccc1OC(c1ccccc1)C2=O (configuration not stated)
(A) class 0

* * *

test system: SF-539 CNS; assay: NCI-60 one-dose screen, 48 h (100 = growth as untreated, 0 = no growth, -100 = all killed); conditions: 10 µM unless noted
This is part of a sample that, as a whole, favours compounds with a hit. Of some 83,000 tested, about 20% had one in any assay.
In this section we review reported growth values for a set of compounds.
Give just the numeric value; % need not be written.

Here is how some compounds turned out for growth.
# Compound, Quantity Unit, growth
data = [
    ("S=C1SCN(Cc2ccccc2)CN1Cc1ccco1", "%", 65.8),
    ("O=C1C[C@@H]2/C(=C(O)\\C=C\\c3ccccc3)C(=O)C=C[C@@H]2O1", "%", -43.3),
    ("C/C(=C\\CCc1ccoc1)CC/C=C(\\C)CCCN1CCC(CO)CC1", "%", 48.9),
    ("Cc1ccc(C=C2C(Cl)=C(Cl)C(Cl)=C2Cl)cc1", "%", -84.5),
    ("Oc1[nH]c2ccc(Cl)cc2c1/C=c1/ccc2c(c1)N=C(c1ccc(C(F)(F)F)cc1)N=2", "%", 80.1),
]

Query compound follows.
(Q) Fill in the blank: the reported growth of CC1SC(c2c(Cl)cccc2Cl)N(NC(=O)c2[nH]c3ccc(F)cc3c2-c2ccccc2)C1=O (stereo unspecified) is ____.
(A) 71.5

* * *

system: K-562 leukemia; assay: NCI-60 one-dose screen, 48 h (100 = growth as untreated, 0 = no growth, -100 = all killed); conditions: 10 µM unless noted
The panel holds about 83,000 compounds, 20% with a hit somewhere; the sample as a whole holds those more often.
In this section we review reported growth values for a set of compounds.
Give just the numeric value; % need not be written.

# Compound, Property Label, Value Observed
records = [
    ("CC(C)C/C(=N\\NC(=O)c1ccncc1)c1cc(Cl)ccc1O", "growth", 9.61),
    ("O=C1c2ccccc2C(=O)c2c1cccc2-n1nnc2ccccc21", "growth", 95.6),
    ("COc1ccc(Nc2nccc(N3CCN(c4c5ccc(Cl)cc5nc5ccc(OC)cc45)CC3)n2)cc1", "growth", 25.4),
    ("N=C(N)/N=C(\\CCc1nc2ccccc2[nH]1)c1nc2ccccc2[nH]1", "growth", 98.4),
    ("ClC1=C(Cl)C(Cl)=C(Cl)C1=C/C=C/c1ccccc1", "growth", -18.9),
]

Query compound follows.
(Q) Fill in the blank: the reported growth of CCC(c1ccccc1)c1noc(CCN(CC)CC)n1 (stereo not drawn) is ____.
(A) 65.1
